Tested on: A549
Protocol: Euclidean distance of Cell Painting phenotypic profile (signed KS, 77 features) to DMSO centroid (dimensionless distance); higher = stronger phenotypic change vs DMSO (phenoactivity)
Conditions: 48 h; 5 or 10 uM (library dependent)
Structures can show the parent of a compound that is named as a salt.
Entry flag: Y if Euclidean distance reaches 0.8; N if it does not.

Please review the entries below; each comes with its answer.
CCC1(c2ccc(N)cc2)CCC(=O)NC1=O (stereo unspecified) [Aminoglutethimide] : N
CC(C)C(Br)C(=O)NC(N)=O (stereo unspecified) [Bromisoval] : N
CO[C@]12C[C@@H](COC(=O)c3cncc(Br)c3)CN(C)[C@@H]1Cc1cn(C)c3cccc2c13 [Nicergoline] : N
CC(C)[C@H](N)C(=O)N1CCC[C@H]1B(O)O [Talabostat (Val-boroPro. PT-100)] : Y
CN[C@@H]1[C@@H](O)[C@@H](O[C@@H]2[C@@H](O)[C@H](O[C@H]3O[C@H]([C@@H](C)O)[C@@H](O)[C@H](O)[C@H]3N)[C@@H](N)C[C@H]2N)OC[C@]1(C)O [Geneticin (G418 Sulfate)] : Y

Does the compound COc1cc([C@@H]2c3cc4c(cc3[C@H](O)[C@H]3COC(=O)[C@@H]23)OCO4)cc(OC)c1OC [Picropodophyllin (PPP)] have recorded Euclidean distance that is 0.8 or more?
Y

Does the compound Nc1ccncc1 [4-Aminopyridine] have recorded Euclidean distance that is 0.8 or more?
N

Does the compound NC(=O)CN1CC(O)CC1=O (stereo unspecified) [Oxiracetam] have recorded Euclidean distance that is 0.8 or more?
N

Does the compound CCC(COC(=O)c1cc(OC)c(OC)c(OC)c1)(c1ccccc1)N(C)C (stereo unspecified) [Trimebutine] have recorded Euclidean distance that is 0.8 or more?
N

Does the compound CC[N+](C)(CC)CCOC(=O)C(O)(c1ccccc1)c1ccccc1 [Methylbenactyzine Bromide] have recorded Euclidean distance that is 0.8 or more?
Y

Does the compound O=C/C=C/c1ccccc1 [Cinnamaldehyde] have recorded Euclidean distance that is 0.8 or more?
N

Does the compound CC(=O)O[C@H]1C[C@@H]2CC[C@@H]3[C@H](CC[C@@]4(C)[C@H]3C[C@H]([N+]3(C)CCCCC3)[C@@H]4OC(C)=O)[C@@]2(C)C[C@@H]1[N+]1(C)CCCCC1 [Pancuronium dibromide] have recorded Euclidean distance that is 0.8 or more?
Y

Does the compound CC(=O)O[C@H]1CC[C@H]2[C@@H]3CCC4=CC(=O)CCC4=C3C=C[C@]12C [Trenbolone acetate] have recorded Euclidean distance that is 0.8 or more?
N

Does the compound COC(=O)C[C@](O)(CCC(C)(C)O)C(=O)O[C@@H]1C(OC)=C[C@]23CCCN2CCc2cc4c(cc2[C@H]13)OCO4 [Harringtonine] have recorded Euclidean distance that is 0.8 or more?
Y

* * *

Test system: OVCAR4
Protocol: Euclidean distance of Cell Painting phenotypic profile (signed KS, 77 features) to DMSO centroid (dimensionless distance); higher = stronger phenotypic change vs DMSO (phenoactivity)
Conditions: 48 h; 5 or 10 uM (library dependent)
Counter-ions that a name gives are not always drawn.
Measurement Name: Euclidean distance
Output: the number by itself.

Reference set (6 entries):
COC(=O)[C@@H](N)CCCNC(=N)N[N+](=O)[O-] : 0.995
O=C(O[C@H]1C[C@H]2CC[C@@H](C1)[N+]21CCCC1)C(O)(c1ccccc1)c1ccccc1 [Trospium chloride] : 1.39
CNC(=O)Oc1cccc2ccccc12 : 1.03
O=C(NCC1CCOCC1)c1cnc(Nc2ccc(Cl)cc2Cl)nc1C(F)(F)F : 3.11
C=CC1CN2CCC1CC2C(O)c1ccnc2ccccc12 (centres undefined) : 1.13
CCOc1ccccc1-n1c(C(C)N2CCN(C(=O)COc3ccc(Cl)cc3)CC2)nc2ccccc2c1=O (centres undefined) : 2.13

Lookup result for `C=C1[C@@H](C)[C@H]2[C@H](Cc3ccccc3)NC(=O)[C@]23[C@H](OC(C)=O)/C=C/[C@@](C)(O)C(=O)[C@@H](C)C/C=C/[C@H]3[C@@H]1O` ; measured Euclidean distance: 3.87

Lookup result for C[C@H]1CNCCc2ccc(Cl)cc21 [Lorcaserin HCl] ; measured Euclidean distance: 0.917

Lookup result for O=P1(NCCCl)OCCCN1CCCl (centres undefined) [Ifosfamide] ; measured Euclidean distance: 1.39

* * *

System: FB
Protocol: Euclidean distance of Cell Painting phenotypic profile (signed KS, 77 features) to DMSO centroid (dimensionless distance); higher = stronger phenotypic change vs DMSO (phenoactivity)
Conditions: 48 h; 5 or 10 uM (library dependent)
Where a name gives a salt, the structure may show the parent alone.
Attribute: Euclidean distance
Output: the number by itself.

Reference set (5 entries):
O=C(CC1NCCCC1O)Cn1cnc2cc(Br)c(Cl)cc2c1=O (stereo not drawn) : 3.62
N[C@@H](Cc1ccc(N(CCCl)CCCl)cc1)C(=O)O : 2.75
C/C=C(\C)C(=O)N[C@@H](c1ccccc1)[C@@H](O)C(=O)O[C@H]1C[C@@]2(O)[C@@H](OC(=O)c3ccccc3)[C@@H]3[C@]4(OC(C)=O)CO[C@@H]4C[C@H](O)[C@@]3(C)C(=O)[C@H](OC(C)=O)C(=C1C)C2(C)C : 2.32
COc1cc2c(cc1OC)[C@@]13CCN4CC5=CCO[C@H]6CC(=O)N2[C@H]1[C@H]6[C@H]5C[C@H]43 [Brucine sulfate salt hydrate] : 1.47
COC1=C[C@@H]2[C@@H]3Cc4ccc(OC)c(O)c4[C@]2(CCN3C)CC1=O [Sinomenine hydrochloride] : 1.15

Lookup result for CCC1(c2ccc(N)cc2)CCC(=O)NC1=O (stereo not drawn) [Aminoglutethimide] ; measured Euclidean distance: 1.37

Lookup result for NCC(O)c1ccc(O)cc1 (stereo not drawn) [(+.-)-Octopamine HCl] ; measured Euclidean distance: 0.934

Lookup result for `COc1cc2c(c(OC)c1OC)-c1ccc(OC)c(=O)cc1[C@@H](NC(C)=O)CC2` ; measured Euclidean distance: 2.88

Lookup result for Clc1ccc(C(OCCN2CCCCC2)c2ccccc2)cc1 (stereo not drawn) [Cloperastine hydrochloride] ; measured Euclidean distance: 0.914

Lookup result for `CC(C)(C)c1cc(C=C(C#N)C#N)cc(C(C)(C)C)c1O` ; measured Euclidean distance: 1.32

* * *

Attribute: Euclidean distance
Test system: 786-O
Protocol: Euclidean distance of Cell Painting phenotypic profile (signed KS, 77 features) to DMSO centroid (dimensionless distance); higher = stronger phenotypic change vs DMSO (phenoactivity)
Conditions: 48 h; 5 or 10 uM (library dependent)
Counter-ions that a name gives are not always drawn.
Output: the number by itself.

NC(=O)CN1CC(c2ccccc2)CC1=O (stereo not drawn) [Phenylpiracetam] : 1.05
Cc1cccc([C@H](C)c2c[nH]cn2)c1C [Dexmedetomidine] : 0.401
COc1ccc(CN2CCNCC2)c(OC)c1OC [Trimetazidine dihydrochloride] : 0.784

Lookup result for N[C@@H]1C[C@H]1c1ccccc1 [Tranylcypromine (2-PCPA) HCl] ; measured Euclidean distance: 1.2

* * *

System: FB
Protocol: Euclidean distance of Cell Painting phenotypic profile (signed KS, 77 features) to DMSO centroid (dimensionless distance); higher = stronger phenotypic change vs DMSO (phenoactivity)
Conditions: 48 h; 5 or 10 uM (library dependent)
Attribute: Euclidean distance
Output: the number by itself.

CNC1CC(N)C(O)C(OC2OC(CO)C(O)C3OC4(OC(C(N)CO)C(O)C(O)C4O)OC23)C1O (stereo not drawn) : 2.53
CCCCCCC(=O)O[C@H]1CC[C@H]2[C@@H]3CCC4=CC(=O)CC[C@]4(C)[C@H]3CC[C@]12C [Testosterone Enanthate] : 0.666
C=C1[C@@H](C)[C@H]2[C@H](Cc3ccccc3)NC(=O)[C@]23[C@H](OC(C)=O)/C=C/[C@@](C)(O)C(=O)[C@@H](C)C/C=C/[C@H]3[C@@H]1O : 4.07
O=c1cccc2n1C[C@@H]1CNC[C@H]2C1 : 1.05
c1ccc2c(c1)Nc1ccccc1S2 : 1.1

Lookup result for `C=C[C@H]1CN2CC[C@H]1C[C@H]2[C@H](O)c1ccnc2ccccc12` ; measured Euclidean distance: 1.09

Lookup result for CCOC(=O)Nc1ccc(NCc2ccc(F)cc2)cc1N [Retigabine 2HCl] ; measured Euclidean distance: 0.958

Lookup result for `N#C[C@H](O[C@@H]1O[C@H](C(=O)O)[C@@H](O)[C@H](O)[C@H]1O)c1ccccc1` ; measured Euclidean distance: 0.899

* * *

Attribute: Euclidean distance
System: OVCAR4
Protocol: Euclidean distance of Cell Painting phenotypic profile (signed KS, 77 features) to DMSO centroid (dimensionless distance); higher = stronger phenotypic change vs DMSO (phenoactivity)
Conditions: 48 h; 5 or 10 uM (library dependent)
Structures can show the parent of a compound that is named as a salt.
Output: the number by itself.

Reference set (5 entries):
CCOC(=O)Nc1ccc(NCc2ccc(F)cc2)cc1N [Retigabine 2HCl] : 0.882
C[C@@H]1[C@H](O)[C@@H](C)/C=C/C=C/CC/C=C/C=C/C=C/C=C/[C@H](O[C@H]2O[C@@H](C)[C@H](O)[C@@H](N)[C@H]2O)C[C@@H]2O[C@](O)(C[C@@H](O)[C@H](O)CC[C@@H](O)C[C@@H](O)C[C@@H](O)CC(=O)O[C@H]1C)C[C@H](O)[C@H]2C(=O)O [Nystatin (Fungicidin)] : 1.06
COc1cc2c(c(OC)c1OC)-c1ccc(OC)c(=O)cc1[C@@H](NC(C)=O)CC2 [Colchicine] : 3.18
O=C1CCC[C@@H]2[C@H]3CCCN4CCC[C@@H](CN12)[C@@H]34 [(+)-Matrine] : 0.759
C/C(=C\c1csc(C)n1)[C@@H]1C[C@@H]2O[C@@H]2CCC[C@H](C)[C@H](O)[C@@H](C)C(=O)C(C)(C)[C@@H](O)CC(=O)O1 [Epothilone A] : 3.02

Sample COc1ccc2c(c1)[C@]13CCCC[C@@H]1[C@H](C2)N(C)CC3 [Dextromethorphan hydrobromide hydrate] , system: OVCAR4. Its Euclidean distance is 1.39

The reported measurements were obtained from the supplement of paper PMC10127200.
